These measurements were taken from patent US20190307833A1.

procedure_details: Stability in artificial intestinal juice
Assay type: in vitro ADME
measurement_conditions: simulated intestinal fluid; during 120 minutes; read-out: stable in artificial intestinal juice
*1 amine or outer side, *2 acyl side, *3 side chain or, on linkers, in order; H or OH if unused. Where a SMILES comes first, the peptide text is derived from it. [ ]: non-standard residue; d: D form. X1 = O=C(C1(N[*:1])C2CC3CC(C2)CC1C3)[*:2]
readout_label: remaining at 2 h

Input line: Item CC(=O)N[C@@H](CC(=O)O)C(=O)NCC(=O)NCC(=O)N[C@@H](CC(C)C)C(=O)NC1(C(N)=O)C2CC3CC(C2)CC1C3 (stereo partly shown) [P021, Ac-DGGL^AG-NH2] (Ac-DGGL[X1]-NH2) : provide remaining at 2 h
Output line: ~95%
